- Test: activity coefficient (dimensionless); of the first substance listed, at infinite dilution; xn = mol fraction of the nth substance listed
- Run Conditions: 348.15 K; 101 kPa; Liquid; Chromatography; x1 = 0
Outcome Measure: activity coefficient

// known answers, use as guide
• C1CCOC1 [tetrahydrofuran] + CCCC[N+]1(C)CCCC1.N#C[B-](C#N)(C#N)C#N = 0.652
• CCCO [propan-1-ol] + CCCC[N+]1(C)CCCC1.N#C[B-](C#N)(C#N)C#N = 1.18
• C=CCCCCCC [oct-1-ene] + CCCC[N+]1(C)CCCC1.N#C[B-](C#N)(C#N)C#N = 13.4
• CC(C)=O [acetone] + CCCC[N+]1(C)CCCC1.N#C[B-](C#N)(C#N)C#N = 0.464
• C=CCCCCC [1-heptene] + CCCC[N+]1(C)CCCC1.N#C[B-](C#N)(C#N)C#N = 9.72
• CCCCC [pentane] + CCCC[N+]1(C)CCCC1.N#C[B-](C#N)(C#N)C#N = 10.2
• CCC(C)CC [3-methylpentane] + CCCC[N+]1(C)CCCC1.N#C[B-](C#N)(C#N)C#N = 12.6

a = O [water] + CCCC[N+]1(C)CCCC1.N#C[B-](C#N)(C#N)C#N
b = CC1CCCCC1 [methylcyclohexane] + CCCC[N+]1(C)CCCC1.N#C[B-](C#N)(C#N)C#N
QUERY: Please compare: a and b . Report which one has the smaller activity coefficient value. Indicate your choice by writing its label.
RESULT: a

====

- Test: activity coefficient (dimensionless); of the first substance listed, at infinite dilution; xn = mol fraction of the nth substance listed
- Run Conditions: 358.15 K; 101 kPa; Liquid; Chromatography; x1 = 0
Outcome Measure: activity coefficient

I = C=CCCC [1-pentene] + CCCC[N+]1(C)CCCC1.N#C[B-](C#N)(C#N)C#N
II = CCC(C)(C)OC [2-methoxy-2-methylbutane] + CCCC[N+]1(C)CCCC1.N#C[B-](C#N)(C#N)C#N
III = C=CCCCCCCCC [1-decene] + CCCC[N+]1(C)CCCC1.N#C[B-](C#N)(C#N)C#N
IV = C1CCOC1 [tetrahydrofuran] + CCCC[N+]1(C)CCCC1.N#C[B-](C#N)(C#N)C#N
QUERY: List the 4 entries from lowest activity coefficient to highest activity coefficient value. As an answer, provide the labels arranged in the order called for.
RESULT: IV, II, I, III

I = C#CCCCCC [1-heptyne] + CCCC[N+]1(C)CCCC1.N#C[B-](C#N)(C#N)C#N
II = c1ccccc1 [benzene] + CCCC[N+]1(C)CCCC1.N#C[B-](C#N)(C#N)C#N
QUERY: Please compare: I and II . Report which one has the smaller activity coefficient value. Indicate your choice by writing its label.
RESULT: II
(II: 0.87, I: 3.54)

====

- Test: activity coefficient (dimensionless); of the first substance listed, at infinite dilution; xn = mol fraction of the nth substance listed
- Run Conditions: 328.15 K; 101 kPa; Liquid; Chromatography; x1 = 0
Outcome Measure: activity coefficient

// known answers, use as guide
• C=CCCC [1-pentene] + CCCC[N+]1(C)CCCC1.N#C[B-](C#N)(C#N)C#N = 5.32
• c1ccccc1 [benzene] + CCCC[N+]1(C)CCCC1.N#C[B-](C#N)(C#N)C#N = 0.816

A = C1CCCC1 [cyclopentane] + CCCC[N+]1(C)CCCC1.N#C[B-](C#N)(C#N)C#N
B = CCCC(C)=O [pentan-2-one] + CCCC[N+]1(C)CCCC1.N#C[B-](C#N)(C#N)C#N
QUERY: Please compare: A and B . Report which one has the smaller activity coefficient value. Indicate your choice by writing its label.
RESULT: B
(B: 0.701, A: 5.47)

a = CC1CCCCC1 [methylcyclohexane] + CCCC[N+]1(C)CCCC1.N#C[B-](C#N)(C#N)C#N
b = C=CCCCCCCCC [1-decene] + CCCC[N+]1(C)CCCC1.N#C[B-](C#N)(C#N)C#N
QUERY: When a and b are compared, which has the higher number for activity coefficient? Indicate your choice by writing its label.
RESULT: b
